- Tested on: MCF7
- ASSAY: Cell proliferation assay (CellTiter Glo), MCF7
- Format: cell-based
- EXPERIMENTAL_PARAMETERS: Homo sapiens, MCF7, 168 h; 7 Day assay, charcoal stripped serum, no phenol red, 10 nM estrogen; read-out: IC50 (uM) E2

{"columns": ["SMILES_STRUCTURE", "UNIT_STRING", "IC50"],
 "data": [
  ["COc1cc(Nc2c(C#N)cnc3cc(OCCCN4CCN(C)CC4)c(OC)cc23)c(Cl)cc1Cl", "µM", 0.86]
]}

----------
- Tested on: SKBR3 (ER neg)
- ASSAY: Cell proliferation assay (CellTiter Glo), SKBR3
- Format: cell-based
- EXPERIMENTAL_PARAMETERS: Homo sapiens, SK-BR-3, 168 h; 7 Day assay, charcoal stripped serum, no phenol red, 10 nM estrogen; read-out: IC50 (uM) E2

{"columns": ["SMILES_STRUCTURE", "IC50 [µM]"],
 "data": [
  ["COc1cc(Nc2c(C#N)cnc3cc(OCCCN4CCN(C)CC4)c(OC)cc23)c(Cl)cc1Cl", 1.38]
]}

----------
- Test system: MDA-MB-361
- ASSAY: Cell proliferation assay (CellTiter Glo), MDA-MB-361
- Type: cell-based
- EXPERIMENTAL_PARAMETERS: Homo sapiens, MDA-MB-361, 168 h; 7 Day assay, charcoal stripped serum, no phenol red, 10 nM estrogen; read-out: IC50 (uM) E2

{"columns": ["COMPOUND", "TARGET_ENTITY", "UNIT_STRING", "IC50"],
 "data": [
  ["COc1cc(Nc2c(C#N)cnc3cc(OCCCN4CCN(C)CC4)c(OC)cc23)c(Cl)cc1Cl [bosutinib]", "MDA-MB-361", "µM", 0.38]
]}

----------
- Tested on: T47D
- ASSAY: Cell proliferation assay (CellTiter Glo), T47D
- Format: cell-based
- EXPERIMENTAL_PARAMETERS: Homo sapiens, 168 h, 7 Day assay, charcoal stripped serum, no phenol red, 10 nM estrogen, read-out: IC50 (uM) E2

{"columns": ["SMILES_STRUCTURE", "IC50, µM"],
 "data": [
  ["COc1cc(Nc2c(C#N)cnc3cc(OCCCN4CCN(C)CC4)c(OC)cc23)c(Cl)cc1Cl", 1.28]
]}

----------
- ASSAY: clinical
- EXPERIMENTAL_PARAMETERS: human, in vivo, po

{"columns": ["COMPOUND", "Tmax"],
 "data": [
  ["COc1cc(Nc2c(C#N)cnc3cc(OCCCN4CCN(C)CC4)c(OC)cc23)c(Cl)cc1Cl [bosutinib]", "3 to 6 h"]
]}

----------
- ASSAY: clinical
- EXPERIMENTAL_PARAMETERS: human, in vivo, po
- Method: A phase 1 single-agent trial of bosutinib to determine the safety, tolerability, and pharmacokinetics of orally administered bosutinib in subjects with advanced-stage, previously treated, solid tumors is currently ongoing. […] Subjects are continued on bosutinib until disease progression, or the occurrence of a significant toxicity considered possibly related to bosutinib. […] Safety is assessed for 21 days in 3 to 6 subjects before beginning the cohort at the next incremental dose.
READOUT_TYPE: half-life

{"columns": ["COMPOUND", "EXPERIMENTAL_VALUE"],
 "data": [
  ["COc1cc(Nc2c(C#N)cnc3cc(OCCCN4CCN(C)CC4)c(OC)cc23)c(Cl)cc1Cl [bosutinib]", "22 to 25 h"]
]}
